The measured values listed here are drawn from the supplement of paper PMC10724198.

tested on: Saccharomyces cerevisiae; assay: protein stability index of tFT-peptide fusion (C-terminal peptide) (PSI (0-1 scale)); higher = more stable (slower turnover); details: genetic background: das1 deletion; temperature: 30 C
# cutoff 0.4 applies to protein stability index; >= gives condition met, < gives condition not met

INPUT: In plain terms: is recorded protein stability index at least 0.4 for PRHVLWLRRLLF ?
OUTPUT: condition met

INPUT: Would you say FLFCMIFIFRCF shows protein stability index at minimum 0.4?
OUTPUT: condition not met

INPUT: Reported protein stability index at or above 0.4? VLLCFFLGIVGF
OUTPUT: condition not met

INPUT: Would you say DLRFAWLLSCFS shows protein stability index at minimum 0.4?
OUTPUT: condition not met

INPUT: Given GPPPPPSLLLLC , state whether its protein stability index is at least 0.4.
OUTPUT: condition met

INPUT: Could you tell me if the measured protein stability index of FQWILYIAKRVV reaches 0.4 or more?
OUTPUT: condition met

INPUT: Would you say GFFCVWSLLFFN shows protein stability index at minimum 0.4?
OUTPUT: condition not met

INPUT: Threshold query (protein stability index >= 0.4) on LPVPVLGFPPLA
OUTPUT: condition met

INPUT: Please tell me: is the sequence FCLGFRFFVFFL at or over 0.4 in terms of protein stability index?
OUTPUT: condition not met

INPUT: Entry VRGSPNVMWKSQ : is its protein stability index no less than 0.4?
OUTPUT: condition met

INPUT: Decide: protein stability index of MFWKFVFRGFWF >= 0.4?
OUTPUT: condition met

INPUT: Given VCNYRKLIWKHH , state whether its protein stability index is at least 0.4.
OUTPUT: condition met

INPUT: Does LWLVSLLVLWLT have a reported protein stability index of at least 0.4?
OUTPUT: condition not met

INPUT: Does VLLSFVFCGWVR have a reported protein stability index of at least 0.4?
OUTPUT: condition not met

INPUT: I'd appreciate it if you could say whether FPLFCRIHLLCS has protein stability index at least equal to 0.4.
OUTPUT: condition not met

INPUT: Given VFGFSLLTLLVL , state whether its protein stability index is at least 0.4.
OUTPUT: condition not met

INPUT: Could you verify whether the entry DILCGRCMIVGA shows protein stability index of no less than 0.4?
OUTPUT: condition met

INPUT: // inclusive: protein stability index at least 0.4? input: GVAVVWVGLGVT
OUTPUT: condition not met

INPUT: Quick check: does YFCVELSVFGFF have protein stability index greater than or equal to 0.4?
OUTPUT: condition not met

INPUT: Test whether the sequence GRGLGHWWTVRT records protein stability index of 0.4 or higher.
OUTPUT: condition met

INPUT: Does SSRRVVLPLLVA have a reported protein stability index of at least 0.4?
OUTPUT: condition not met

INPUT: protein stability index >= 0.4 for LTFRFGVNPYVF ?
OUTPUT: condition met

INPUT: Record VFFVTSCWVFRG ; criterion: protein stability index no lower than 0.4. Met?
OUTPUT: condition met

INPUT: # bool: protein stability index of LFTTYVFLVFFQ >= 0.4
OUTPUT: condition not met

INPUT: Confirm if protein stability index reported for the sequence LLVIAIKVPANS is 0.4 or above.
OUTPUT: condition not met

INPUT: Is protein stability index at least 0.4? Consider GALWPGALRFLN
OUTPUT: condition met

----------
system: Saccharomyces cerevisiae; test: protein stability index of tFT-peptide fusion (C-terminal peptide) (PSI (0-1 scale)); higher = more stable (slower turnover); conditions: genetic background: cdc53-1; temperature: 37 C
Assign T whenever protein stability index does not fall below 0.5; assign F whenever it does.

INPUT: Is reported protein stability index greater than or equal to 0.5 here: VGEQEVVGIGGV
OUTPUT: T

INPUT: Given SFLLVWCLLPEI , state whether its protein stability index is at least 0.5.
OUTPUT: F

INPUT: Record SSRRVVLPLLVA ; criterion: protein stability index no lower than 0.5. Met?
OUTPUT: F

INPUT: I'd appreciate it if you could say whether VECPWFCLGVLA has protein stability index at least equal to 0.5.
OUTPUT: F

INPUT: Decide: is the reported value of protein stability index for CKGPPVKFIVLM equal to or greater than 0.5?
OUTPUT: T

INPUT: Threshold query (protein stability index >= 0.5) on SVVLCRFVLRIF
OUTPUT: F

INPUT: Assess whether reported protein stability index for RLIARFKILRCI sits at 0.5 or higher.
OUTPUT: T

INPUT: hey, is protein stability index for this one >= 0.5? MALAVRVVACGA
OUTPUT: F

INPUT: Kindly determine if protein stability index recorded for FRFSSLLYILLS is above or exactly 0.5.
OUTPUT: F

INPUT: Tell me whether protein stability index is at least 0.5 here: PVPPSLLHRPPF
OUTPUT: T

INPUT: Determine whether measured protein stability index meets or exceeds 0.5 for VGDVVWFGVGAG
OUTPUT: T

INPUT: protein stability index >= 0.5 for LLFLVCFFPSIS ?
OUTPUT: T

INPUT: Is protein stability index at least 0.5? Consider ILCVEFFVSVSV
OUTPUT: F

INPUT: Assess whether reported protein stability index for TLLMVSMTVRPL sits at 0.5 or higher.
OUTPUT: F

INPUT: Is the recorded value of protein stability index equal to or greater than 0.5 for this sequence? WRCECELASACA
OUTPUT: F

INPUT: Tell me whether protein stability index is at least 0.5 here: TTSHFCVVLVSV
OUTPUT: F

INPUT: Check this sequence for protein stability index at or above 0.5: FPPCSFLGFLVF
OUTPUT: T

INPUT: Does the reported protein stability index for WFFRLFFLFFSG fall at or above the 0.5 mark?
OUTPUT: F

INPUT: # bool: protein stability index of GSLHWVMVFAVP >= 0.5
OUTPUT: T

INPUT: Could you please find out whether GFPFLCSFLLAS has protein stability index that meets 0.5 or exceeds it?
OUTPUT: F

INPUT: Dear colleague, could you confirm whether LFSFVCLVFFLW has protein stability index at or above 0.5?
OUTPUT: F

INPUT: Is protein stability index at least 0.5? Consider VALSILCVFFFF
OUTPUT: F

INPUT: Determine whether this sequence has protein stability index no lower than 0.5: RLVCPFYIACVW
OUTPUT: T

INPUT: Check if protein stability index >= 0.5 (inclusive). Item: GFTIFFFFFFFV
OUTPUT: F

----------
tested on: Saccharomyces cerevisiae; assay: protein stability index of tFT-peptide fusion in deletion strain of DAS1 (PSI (0-1 scale)); higher = more stable (slower turnover)
So basically: protein stability index at 0.6 or higher? That is YES. Lower than 0.6? That is NO.

INPUT: API: above_or_equal(metric=protein stability index, cutoff=0.6) for item FSMRWTFRYWVK
OUTPUT: NO

INPUT: Quick check, protein stability index >= 0.6? LKILRQKMNHQS
OUTPUT: YES

INPUT: # check: protein stability index of PDKRNHLIKLLNS is greater than or equal to 0.6
OUTPUT: YES

INPUT: Hi team, for EKILRQKMNHQN , is the recorded protein stability index at or above 0.6?
OUTPUT: YES

INPUT: Hello, I need to know if LKILRQKSNHQN has measured protein stability index not below 0.6. Thanks!
OUTPUT: YES

INPUT: Form field: protein stability index at least 0.6? Entry: LVVYISCVACIN
OUTPUT: NO

INPUT: Dear colleague, could you confirm whether KKHKKGQDQKIN has protein stability index at or above 0.6?
OUTPUT: NO

INPUT: Decide: is the reported value of protein stability index for ISMRWTFRYWVN equal to or greater than 0.6?
OUTPUT: NO

INPUT: Evaluate ARWRKGLWRGAS : protein stability index at minimum 0.6?
OUTPUT: YES

INPUT: Say whether LVVYLSCPACIN shows protein stability index of 0.6 or more.
OUTPUT: NO

INPUT: Could you verify whether the entry PSLAASFWRVGG shows protein stability index of no less than 0.6?
OUTPUT: YES

INPUT: Can KKHKNGQKQKIN be said to have protein stability index at or above 0.6?
OUTPUT: YES

INPUT: Entry FSMRWTFRYTVN : is its protein stability index no less than 0.6?
OUTPUT: NO

INPUT: Is reported protein stability index greater than or equal to 0.6 here: FSMRWTFRHWVN
OUTPUT: YES
